Tested on: Caco-2 cells
Assay: Cell viability of proliferating Caco-2 cells (number of nuclei)
Format: cell-based, human
Settings: Homo sapiens; Caco-2 J4, cytotoxic constituent, no exogenous iron; read-out: Constituent 2 (10-100 μM) IC50
result.type: IC50
Be sure to follow the number with its unit.

NCCCCNCCCCNCc1ccc2cccc(O)c2n1 [HQ1-44]	20 µM
O=C(O)c1ccc(-n2nc(-c3ccccc3O)nc2-c2ccccc2O)cc1 [ICL670, reference compound]	90 µM

Now consider a different compound.
Query: Recorded IC50 for NCCCCNCCCCNCCCNCc1ccc2cccc(O)c2n1 [HQ1-344] , please?
Reply: 75 µM

----------
System: Caco-2 cells
Assay: LDH release of Caco-2 cells
Format: cell-based, human
Details: Caco-2 J4, 100 μM
result.type: % LDH/control 100 μM (%)
Give a bare numeral; the unit % is implied.

Query: Recorded % LDH/control 100 μM for NCCCNCCCCNCCCNCc1ccc2cccc(O)c2n1 [HQ1-343] , please?
Reply: 255

Query: Recorded % LDH/control 100 μM for NCCCCNCCCCNCCCCNCc1ccc2cccc(O)c2n1 [HQ1-444] , please?
Reply: 118

Query: Recorded % LDH/control 100 μM for NCCCNCCCCNCc1ccc2cccc(O)c2n1 [HQ1-43] , please?
Reply: 240

Query: Recorded % LDH/control 100 μM for O=C(O)c1ccc(-n2nc(-c3ccccc3O)nc2-c2ccccc2O)cc1 [ICL670, reference compound] , please?
Reply: 130

----------
Tested on: mutant cell line CHO-MG without PTS
Assay: Anti-proliferative effect on CHO-MG cells without PTS, counting of cell nuclei
Type: cell-based, hamster
Details: 72 h treatment
Consider the following compounds and their measured IC50 readings.
Give a bare numeral; the unit µM is implied.

The cases that follow already have their IC50 on record.
NCCCCNCCCCNCCCCNCc1ccc2cccc(O)c2n1	240
NCCCNCCCCNCCCCNCc1ccc2cccc(O)c2n1	258
NCCCNCCCNCc1ccc2cccc(O)c2n1	118
NCCCCNCCCCNCc1ccc2cccc(O)c2n1	344

Query: Recorded IC50 for "NCCCNCCCNCCCNCc1ccc2cccc(O)c2n1" , please?
Reply: 277

----------
Tested on: HepG2 cells
Test: Anti-proliferative effect on HepG2 cells (nuclei count or SDH activity)
Format: cell-based, human
Settings: absence of exogenous iron, 72 h
Decide by % of HepG2 cells concerned by the anti-proliferative effect: equal to or exceeding 10% means class 1, less means class 0.

Example entries and their recorded answers appear below.
NCCCNCCCNCCCNCc1ccc2cccc(O)c2n1	class 1
NCCCCNCCCNCc1ccc2cccc(O)c2n1	class 0
NCCCNCCCCNCCCNCc1ccc2cccc(O)c2n1	class 1

Query: For this compound, is measured % of HepG2 cells concerned by the anti-proliferative effect 10% or higher? O=C(O)c1ccc(-n2nc(-c3ccccc3O)nc2-c2ccccc2O)cc1 [ICL670, reference compound]
Reply: class 1

Query: For this compound, is measured % of HepG2 cells concerned by the anti-proliferative effect 10% or higher? "NCCCNCCCCNCCCCNCc1ccc2cccc(O)c2n1"
Reply: class 1

Query: For this compound, is measured % of HepG2 cells concerned by the anti-proliferative effect 10% or higher? "NCCCCNCCCCNCc1ccc2cccc(O)c2n1"
Reply: class 1
